// data source = patent US20240287046A1

Reported % ID/g (72 h) Stomach values follow for various compounds
Test system: ASPC-1 tumor-bearing mice
protocol-summary: Biodistribution of radionuclide labeled complexes in ASPC-1 tumor-bearing mice
Type: in vivo, BALB/c nude mice
condition-summary: Stomach, 72 h

- compound: "COc1cccc(OC)c1-c1cc(C(=O)NC2(C(=O)O)C3CC4CC(C3)CC2C4)nn1-c1ccc(NC(=O)CCCN(C)CCCN(C)C(=O)CN2CCN(CC(=O)[O-])CCN(CC(=O)[O-])CCN(CC(=O)[O-])CC2)cc1C(C)C.[177Lu+3] (stereo not drawn) [^177Lu-I-5]"
  test-system: "ASPC-1 tumor-bearing mice"
  % ID/g (72 h) Stomach, % ID/g: 0.15
- compound: "COc1cccc(OC)c1-c1cc(C(=O)NC2(C(=O)O)C3CC4CC(C3)CC2C4)nn1-c1ccc(N(C)CCCN(C)CCCN(C)C(=O)CN2CCN(CC(=O)[O-])CCN(CC(=O)[O-])CCN(CC(=O)[O-])CC2)cc1C(C)C.[177Lu+3] (stereo not drawn) [^177Lu-I-1]"
  test-system: "ASPC-1 tumor-bearing mice"
  % ID/g (72 h) Stomach, % ID/g: 0.1
- compound: "COc1cccc(OC)c1-c1cc(C(=O)NC2(C(=O)O)C3CC4CC(C3)CC2C4)nn1-c1ccc(NCCCN(C)CCCNC(=O)CN2CCN(CC(=O)[O-])CCN(CC(=O)[O-])CCN(CC(=O)[O-])CC2)cc1C(C)C.[177Lu+3] (stereo not drawn) [^177Lu-I-2]"
  test-system: "ASPC-1 tumor-bearing mice"
  % ID/g (72 h) Stomach, % ID/g: 0.22
- compound: "COc1cccc(OC)c1-c1cc(C(=O)NC2(C(=O)O)C3CC4CC(C3)CC2C4)nn1-c1ccc(OCCCN(C)CCCN(C)C(=O)CN2CCN(CC(=O)[O-])CCN(CC(=O)[O-])CCN(CC(=O)[O-])CC2)cc1C(C)C.[177Lu+3] (stereo not drawn) [^177Lu-I-7]"
  test-system: "ASPC-1 tumor-bearing mice"
  % ID/g (72 h) Stomach, % ID/g: 0.04
- compound: "COc1cccc(OC)c1-c1cc(C(=O)NC2(C(=O)O)C3CC4CC(C3)CC2C4)nn1-c1ccc(C(=O)N(C)CCCN(C)CCCN(C)C(=O)CN2CCN(CC(=O)[O-])CCN(CC(=O)[O-])CCN(CC(=O)[O-])CC2)cc1C(C)C.[177Lu+3] (stereo not drawn) [^177Lu-C-2, reference compound]"
  test-system: "ASPC-1 tumor-bearing mice"
  % ID/g (72 h) Stomach, % ID/g: 0.05
- compound: "COc1cccc(OC)c1-c1cc(C(=O)NC2(C(=O)O)C3CC4CC(C3)CC2C4)nn1-c1ccc(NCCOCCOCCNC(=O)CN2CCN(CC(=O)[O-])CCN(CC(=O)[O-])CCN(CC(=O)[O-])CC2)cc1C(C)C.[177Lu+3] (stereo not drawn) [^177Lu-I-10]"
  test-system: "ASPC-1 tumor-bearing mice"
  % ID/g (72 h) Stomach, % ID/g: 0.04

---

Test system: ASPC-1 tumor-bearing mice
protocol-summary: Biodistribution of radionuclide labeled complexes in ASPC-1 tumor-bearing mice
Type: in vivo, BALB/c nude mice
condition-summary: Blood, 4 h
Reported % ID/g (4 h) Blood values follow for various compounds
observed-property: % ID/g (4 h) Blood (% ID/g)

- compound: "COc1cccc(OC)c1-c1cc(C(=O)NC2(C(=O)O)C3CC4CC(C3)CC2C4)nn1-c1ccc(C(=O)N(CCCNC(=O)CN2CCN(CC(=O)[O-])CCN(CC(=O)[O-])CCN(CC(=O)[O-])CC2)CCCN(C)C)cc1C(C)C.[177Lu+3] (stereo not shown) [^177Lu-C-5, reference compound]"
  observed-property: "% ID/g (4 h) Blood"
  reading: 0.22
- compound: "COc1cccc(OC)c1-c1cc(C(=O)NC2(C(=O)O)C3CC4CC(C3)CC2C4)nn1-c1ccc(SCCCN(C)CCCN(C)C(=O)CN2CCN(CC(=O)[O-])CCN(CC(=O)[O-])CCN(CC(=O)[O-])CC2)cc1C(C)C.[177Lu+3] (stereo not shown) [^177Lu-I-8]"
  observed-property: "% ID/g (4 h) Blood"
  reading: 6.25
- compound: "COc1cccc(OC)c1-c1cc(C(=O)NC2(C(=O)O)C3CC4CC(C3)CC2C4)nn1-c1ccc(NCCOCCOCCNC(=O)CN2CCN(CC(=O)[O-])CCN(CC(=O)[O-])CCN(CC(=O)[O-])CC2)cc1C(C)C.[177Lu+3] (stereo not shown) [^177Lu-I-10]"
  observed-property: "% ID/g (4 h) Blood"
  reading: 0.93
- compound: "COc1cccc(OC)c1-c1cc(C(=O)NC2(C(=O)O)C3CC4CC(C3)CC2C4)nn1-c1ccc(NCCCN(C)CCCNC(=O)CN2CCN(CC(=O)[O-])CCN(CC(=O)[O-])CCN(CC(=O)[O-])CC2)cc1C(C)C.[177Lu+3] (stereo not shown) [^177Lu-I-2]"
  observed-property: "% ID/g (4 h) Blood"
  reading: 9.23
